B1: library; numbered along this chain (parent)
chain: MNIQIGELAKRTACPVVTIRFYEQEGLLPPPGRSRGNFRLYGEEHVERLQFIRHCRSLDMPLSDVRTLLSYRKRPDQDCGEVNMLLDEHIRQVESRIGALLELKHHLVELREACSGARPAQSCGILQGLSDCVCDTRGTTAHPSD

# Variants of: B1
# Protocol Details: sfGFP reporter fluorescence (15 h) (µM FITC); higher = stronger transcriptional activation
# Applied Conditions: library round: Round 0; ligand: 1 µM Pb
Recorded measurements of sfGFP reporter fluorescence, one per entry
Property Measured: sfGFP reporter fluorescence

Sequence Data	Data Value
MNIQIGELAKRTACPVVTIRFYEQEGLLPPPGRSRGNFRLYGEEHVERLQFIRHCRSLDLPLSKVRTLLSYRKRPDQDCGEVNMLLDEHIRQVESRIGALLELVHHLVELREACSGARPAQSCGILQMLSDCVCDTRGTTAHPSD [M60L D64K K104V G128M]	4.36
MNIQIGELAKRTACPVVTIRFYEQEGLLPPPGRSRGNFRLYGEEHVERLQFIRHCRSLDMNLSDVRTLLSYRKRPDQDCGEVNMLLDEHIRQVESRIGALLELVHHCVELREACSGARPAQSCGILQILSDCVCDTRGTTAHPSD [P61N K104V L107C G128I]	1.31
MNIQIGELAKRTACPVVTIRFYEQEGLLPPPGRSRGNFRLYGEEHVERLQFIRHCRSLDMPLSDVRTLLSYRKRPDQDCGEVNMLLDEHIRQVESRIGALLELKHHLVEWREACSGARPAQSCGILQGLSDCVCDTRGTTAHPSD [L110W]	0.0572
MNIQIGELAKRTACPVVTIRFYEQEGLLPPPGRSRGNFRLYGEEHVERLQFIRHCRSLDMPLSDVRTLLSYRKRPDQDCGEVNMVLDEHIRQVESRIGALLELKHHLVELREACSGARPAQSCGILQGLSDCVCDTRGTTAHPSD [L85V]	0.0594
MNIQIGELAKRTACPVVTIRFYEQEGLLPPPGRSRGNFRLYGEEHVERLQFIRHCRSLDMPLSDVRTLLSYRKRPDQDCGEVNMLLDEHIRQVESRIGALLELKHHLVELREACSGARPAQSCGILQGVSDCVCDTRGTTAHPSD [L129V]	0.0572
MNIQIGELAKRTACPVVTIRFYEQEGLLPPPGRSRGNFRLYGEEHVERLQFIRHCRSLDMPLSDVRTLLSYRKRPDQACGEVNMLLDEHIRQVESRIGALLELKHHLVELREACSGARPAQSCGILQGLSDCVCDTRGTTAHPSD [D78A]	0.0689
MNIAIGELAKRTACPVVTIRFYEQEGLLPPPGRSRGNFRLYGEEHVERLQFIRHCRSLDMPLSDVRTLLSYRKRPDQDCGEVNMLLDEHIRQVESRIGALLELKHHLVELREACSGARPAQSCGILQGLSDCVCDTRGTTAHPSD [Q4A]	0.0555
MNIQIGELAKRTACPVVTIRFYEQEGLLPPPGRSRGNFRLYGEEHVERLQFIRHCRSLDMPLSDVRTLLSYRKRPDQDCGEQNMLLDEHIRQVESRIGALLELKHHLVELREACSGARPAQSCGILQGLSDCVCDTRGTTAHPSD [V82Q]	0.057
MNIQIGELAKRTACPVVTIRFYEQEGLLAPPGRSRGNFRLYGEEHVERLQFIRHCRSLDMPLSDVRTLLSYRKRPDQDCGEVNMLLDEHIRQVESRIGALLELKHHLVELREACSGARPAQSCGILQGLSDCVCDTRGTTAHPSD [P29A]	0.0704
MNIQIGELAKRTACPVVTIRFYEQEGLLPPPGRSRGNFRLYGEEHVERLQFIRHCRSLDMPLSAVRTSLSYRKRPDQDCGEVNMLLDEHIRQVESRIGALLELKHHLVELREACSGARPAQSCGILQGLSDCVCDTRGTTAHPSD [D64A L68S]	0.0597
MNIQIGELAKRTACPVVTIRFYEQEGLLPPPGRSRGNFRLYGEEHVERLQFIRHCRSLDMPLSDVRTLLSYRKRPDQDCGEVNMLLDEHIRQVESRIGALLELKHHLVELREACSGARPAQSCGSLQGLSDCVCDTRGTTAHPSD [I125S]	0.0574
MNQQIGELAKRTACPVVTIRFYEQEGLLPPPGRSRGNFRLYGEEHVERLQFIRHCRSLDMPLSDVRTLLSYRKRPDQDCGEVNMLLDEHIRQVESRIGALLELKHHLVELREACSGARPAQSCGILQGLSDCVCDTRGTTAHPSD [I3Q]	0.0671
MNIQIGELAKRTACPVVTIRFYEQEGLLPPPGRSRGNFRLYGEEHVERLQFIRHCRSLDMPLSDVRTFLSYRKRPDQDCGEVNMLLDEHIRQVESRIGALLELKHHLVELREACSGARPAQSCGILQGLSDCVCDTRGTTAHPSD [L68F]	0.166
MNIQIGELAKRTACPVVTIRFYEQEGLLPPPGRSRGNFRLYGIEHVERLQFIRHCRSLDMPLSDVRTLLSYRKRPDQDCGEVNMLLDEHIRQVESRIGALLELKHHLVELREACSGARPAQSCGILQGLSDCVCDTRGTTAHPSD [E43I]	0.0806
MNIQIGELAKRTACPVVTIRFYEQEGLLPPPGRSRGNFRLYGEEHVERLQFIRHCRSLDMWLSDVRTLLSYRKRPDQDCGEVNMLLDEHIRQVESRIGALLELKHHLVELREACSGARPAQSCGILQGLSDCVCDTRGTTAHPSD [P61W]	0.064
MNIQIGELAKRTACPVVTIRFYEQEGLLPPPGRSRGNFRLYGEEHVERLQFIRHCRSLDMPLSDVRTLLSYRKRPDQDCGEVNMLLDEHIRQVESRIGALLELKHHLVELREACSGARPAQSCGILQPLSDCVCDTRGTTAHPSD [G128P]	0.0568
MNIQIGELAKRTACPVVTARFYEQEGLLPPPGRSRGNFRLYGEEHVERLQFIRHCRSLDMPLSDVRTLLSYRKRPDQDCGEVNMLLDEHIRQVESRIGALLELKHHLVELREACSGARPAQSCGILQGLSDCVCDTRGTTAHPSD [I19A]	0.0592
MNIQIGELAKRTACPVVTIRFYEQEGLLPPPGRSRGNFRLYGEEHVERLQFIRHCRSLDMPLSDVRTLLSYRKRPDQDCGEVNMLLDEHIRQVESRIGALLELKHHYVELREACSGARPAQSCGILQGLSDCVCDTRGTTAHPSD [L107Y]	0.0676
MNIQIGELAKRTACPVVTIRFYEQEGLLPPPGRSRGNFRLYGEEHVERLQFIRHCRSLDMPLSDVRTLLSYRKRPDQDCGEVNMLLAEHIRQVESRIGALLELKHHLVELREACSGARPAQSCGILQGLSDCVCDTRGTTAHPSD [D87A]	0.0652
MNIQIGELAKRTACPVVTIRFYEQEGLLPPPGRSRGNFRLYGEEHVERLQFIRHCRSLDMPLSDVRTLLSYRKRPDQDCGEVNMLLDEHIRQVESRCGALLELKHHLVELREACSGARPAQSCGILQGLSDCVCDTRGTTAHPSD [I97C]	0.0702
MNIQIGELAKRTACPVVTIRFYEQEGLLPPPGRSRGNFRLYGEEHVERLQFIRHCRSLDMPLSDVRTLLSYRKRPDQDCGEVNMLLDEHIRQVESRIGALLELKHHLVELREACSGARPAQSCGQLQGLSDCVCDTRGTTAHPSD [I125Q]	0.0597
MNIQIGDLAKRTACPVVTIRFYEQEGLLPPPGRSRGNFRLYGEEHVERLQFIRHCRSLDMPLSDVRTLLSYRKRPDQDCGEVNMLLDEHIRQVESRIGALLELKHHLVELREACSGARPAQSCGILQGLSDCVCDTRGTTAHPSD [E7D]	0.0823
MNIQIGELAKRTACPVVTIRFYEQEGLLPPPGWSRGNFRLYGEEHVERLQFIRHCRSLDMPLSDVRTLLSYRKRPDQDCGEVNMLLDEHIRQVESRIGALLELKHHLVELREACSGARPAQSCGILQGLSDCVCDTRGTTAHPSD [R33W]	0.0629
